biological target: HpoR (Ms5860) (Mycolicibacterium smegmatis, UniProt A0R4J9)
Sequence (A0R4J9 1-199): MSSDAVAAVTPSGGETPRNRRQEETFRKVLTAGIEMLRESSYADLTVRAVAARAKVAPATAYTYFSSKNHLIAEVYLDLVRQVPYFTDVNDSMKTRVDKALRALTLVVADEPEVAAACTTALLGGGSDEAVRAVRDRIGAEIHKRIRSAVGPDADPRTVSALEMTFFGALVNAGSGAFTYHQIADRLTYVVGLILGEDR
Endpoint Label: Kd (nM)
Numbers only, in nM.

Note to self: Kd recorded for Nc1nc2c(ncn2[C@@H]2O[C@@H]3COP(=O)(O)O[C@H]4[C@@H](O)[C@H](n5cnc6c(=O)[nH]c(N)nc65)O[C@@H]4COP(=O)(O)O[C@H]3[C@H]2O)c(=O)[nH]1 was 1780

Attribution: paper PMC5909442
